test system: NHBE cells; test: cells; assay type: cell-based, human; details: […]; therapeutic schedule; dose response 4 nM to 10 μM; […]; read-out: IC50, Therapeutic Treatment, Control
Field: label. Allowed values: y (IC50 < 90 nM) or n (IC50 >= 90 nM).

Example entries begin here.
{"columns": ["Compound", "Group"],
 "data": [
  ["O=[N+]([O-])c1ccc(O)c([N+](=O)[O-])c1 [2,4-DINITROPHENOL]", "n"],
  ["CCn1nnc2c(N3CCOCC3)nc(-c3ccc(NC(=O)Nc4ccc(C(=O)N5CCN(C)CC5)cc4)cc3)nc21 [PKI-402]", "y"],
  ["OO.OO.[K+].[OH-].[V].c1cnc2c(c1)ccc1cccnc12 [BPV(PHEN)]", "y"]
]}

Okay, next one:
Query: hey, is IC50 for O=C1Nc2ccc3ncsc3c2/C1=C/c1cnc[nH]1 [IMIDAZOLO-OXINDOLE PKR INHIBITOR C16] lower than 90 nM or not?
Response: y

---

tested on: NHBE cells; assay: Biolog metabolic array: substrate use by NHBE cells with or without CA09 infection; assay type: cell-based, human; conditions: Virus (CA09-infected NHBE cells, MOI 1); 11 hr
Field: label. Allowed values: t (590 nm absorbance normalized to zero hour (substrate use), 11 hr < 0.9) or f (590 nm absorbance normalized to zero hour (substrate use), 11 hr >= 0.9).

{"columns": ["Compound", "Group"],
 "data": [
  ["O=C(O)C[C@@H](O)C(=O)O", "f"],
  ["O=C(O)CC(CC(=O)O)C(=O)O", "t"],
  ["O=C(O)C(O)C(O)C(=O)O (stereo not shown)", "f"],
  ["O=C(CO)[C@@H](O)[C@H](O)[C@@H](O)CO", "t"],
  ["OC[C@@H]1OC(O)[C@@H](O)[C@H](O)[C@H]1O (stereo partly shown)", "t"],
  ["O=C(CO)[C@@H](O)[C@H](O)[C@H](O)CO", "f"],
  ["C[C@@H]1OC(O)[C@@H](O)[C@H](O)[C@@H]1O (stereo partly shown)", "t"],
  ["CC(=O)C(C)O (stereo not shown) [3-Hydroxy 2-Butanone]", "f"],
  ["O=C(O)CCCO [g-Hydroxy-Butyric Acid]", "t"]
]}

Okay, next one:
Query: hey, is 590 nm absorbance normalized to zero hour (substrate use), 11 hr for OC[C@H]1O[C@H](OC[C@H]2OC(O)(CO)[C@@H](O)[C@@H]2O)[C@H](O)[C@@H](O)[C@@H]1O (stereo partly shown) lower than 0.9 or not?
Response: t

---

tested on: CA09; assay: microbe, parasite or virus in culture; type: cell-based, influenza virus H1N1 strain A/CA/04/2009; details: NHBE, read-out: TCID50 (per mL)
Property name: log reduction at 10 pM

{"columns": ["Compound", "Value observed"],
 "data": [
  ["CCc1ccc(CCOc2ccc(CC3SC(=O)NC3=O)cc2)nc1 (stereo not drawn)", 0.22]
]}

Query: Query log reduction at 10 pM for Cn1c(=O)n(-c2ccc(C(C)(C)C#N)cc2)c2c3cc(-c4cnc5ccccc5c4)ccc3ncc21
Response: 0.75

Query: Query log reduction at 10 pM for CC[C@@H]1/C=C/C=C/C[C@H](C)[C@@H](O)[C@](C)(O)C(=O)[C@H](C)[C@@H](O)[C@H](C)C(=O)[C@H](C)[C@@H](O)[C@H](C)/C=C/C(=O)O[C@H]2[C@@H](C)[C@@H](CC1)O[C@@]1(CC[C@@H](C)C(CC(C)O)O1)[C@@H]2C (stereo partly drawn)
Response: 0.92
